- System: GSK-3α/β
- Assay Info: GSK-3α/β kinase assay (GS-1 peptide, 15 μM ATP)
- Type: biochemical, porcine
- Test Conditions: Table 7; GSK-3; read-out: IC50exp
Threshold 60 nM. IC50 below it: criterion met. IC50 at it or above: criterion not met.

[[record]]
compound = "CC(=O)ON=C1C(=C2C(=O)Nc3cc(Br)ccc32)Nc2ccccc21 [8a, 6-Bromoindirubin-3′-acetoxime]"
system = "GSK-3α/β"
label_value = "criterion met"

[[record]]
compound = "O=C1Nc2cc(Cl)ccc2C1=C1Nc2ccccc2C1=NO [7d, 6-Chloroindirubin-3′-oxime]"
system = "GSK-3α/β"
label_value = "criterion met"

[[record]]
compound = "CC(=O)ON=C1C(=C2C(=O)Nc3cc(Br)c(C)cc32)Nc2ccccc21 [8f, 6-Bromo-5-methylindirubin-3′-acetoxime]"
system = "GSK-3α/β"
label_value = "criterion met"

[[record]]
compound = "O=C1Nc2ccc(Br)cc2/C1=C1/Nc2ccccc2C1=O [compound 16, 5-bromo-indirubin, reference compound]"
system = "GSK-3α/β"
label_value = "criterion met"

[[record]]
compound = "O=C1Nc2cc(F)ccc2C1=C1Nc2ccccc2C1=NO [7b, 6-Fluoroindirubin-3′-oxime]"
system = "GSK-3α/β"
label_value = "criterion not met"

[[record]]
compound = "O=C1Nc2ccc(Cl)cc2/C1=C1/Nc2ccccc2C1=O [compound 17, 5-chloro-indirubin, reference compound]"
system = "GSK-3α/β"
label_value = "criterion met"


# next compound below
(Q) Decide: IC50 of O=C1Nc2cc(Br)ccc2/C1=C1/Nc2cc(Br)ccc2C1=O [12b, 6,6′-Dibromoindirubin] strictly below 60 nM?
(A) criterion not met
